Target: T1, recombinant human TIGIT (human, UniProt Q495A1 22-141, limits assumed)
T1 construct: recombinant human TIGIT used in Carterra SPR; also called hTIGIT
T1 sequence (looked up): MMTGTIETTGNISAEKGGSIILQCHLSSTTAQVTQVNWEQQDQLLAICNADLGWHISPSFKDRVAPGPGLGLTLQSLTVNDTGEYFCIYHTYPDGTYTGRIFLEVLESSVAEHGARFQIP
Assay: SPR Carterra, average
Examples of binders with documented kon follow.

| Binder | kon [M⁻¹ s⁻¹] |
| --- | --- |
| TIGIT-SC52 (Fc fusion, VHH-Fc fusion in assay) VHH: EVQLVESGGGLVQPGGSLRLSCAASGFLFDSYAMGWFRQAPGKEREFVAAISTGGGWRTYADSVKGRFTISADNSKNTAYLQMNSLKPEDTAVYYCAKRGNDNWYFDLWGQGTLVTVSS | 101000 |
| TIGIT-SC21 (Fc fusion, VHH-Fc fusion in assay) VHH: EVQLVESGGGLVQPGGSLRLSCAASGNTFSGGFMGWFRQAPGKEREWVASVLRGGYTWYADSVKGRFTISADNSKNTAYLQMNSLKPEDTAVYYCARGGAGSDWFGPWGQGTLVTVSS | 86600 |
| TIGIT-SC208 (Fc fusion, VHH-Fc fusion in assay) VHH: EVQLVESGGGLVQPGGSLRLSCAASGFLFDSYVMGWFRQAPGKEREFVAAIWRSGTLKAYADSVKGRFTISADNSKNTEYLQMNSLKPEDTAVYYCARDDYGDTRRYFQHWGQGTLVTVSS | 231000 |
| TIGIT-SC111 (Fc fusion, VHH-Fc fusion in assay) VHH: EVQLVESGGGLVQPGGSLRLSCAASGDTFSGGFMGWFRQAPGKEREWVASVLRGGYTWYADSVKGRFTISADNSKNTAYLQMNSLKPEDTAVYYCTRGGMDVWGQGTLVTVSS | 1.7e+06 |
